Tested on: RPMI-8226 leukemia
protocolDescription: NCI tumour cell line growth inhibition, 48 h
Attribute: TGI

Below, each entry is followed by its recorded TGI result.
>  <compound>
O=c1[nH]nc(Cc2ccccc2)n1/N=C/c1c[nH]c2ccccc12

>  <valueReported>
> 100 µM

$$$$
>  <compound>
CC(C)Oc1c(-c2c(OC(C)C)c(=O)c2=O)c(=O)c1=O

>  <valueReported>
> 71.8 µM

$$$$

Kindly state the measured TGI obtained for CC1OC(OCC2OC(Oc3c(-c4ccc(O)cc4)oc4cc(O)cc(O)c4c3=O)C(OC3OCC(O)(CO)C3O)C(O)C2O)C(O)C(O)C1O (stereo unspecified) with RPMI-8226 leukemia.
> 100 µM

Notebook: pull reported TGI for RPMI-8226 leukemia, entry N#CCC1COc2ccccc2O1 (stereo unspecified)
> 10 µM

For the record Cc1nc2ccc(S(=O)(=O)Nc3ccc(Cl)cc3)cc2c(=O)n1NC(=O)CNc1ccc(Cl)cc1 , what value of TGI is listed for RPMI-8226 leukemia?
> 100 µM

Quick check: TGI on RPMI-8226 leukemia, item Cn1c2c(c3ccccc31)CCN(CCCCN1CCc3c(n(C)c4ccccc34)C1=O)C2 ?
> 100 µM

* * *

Catalogue of compounds with associated TGI
Test system: MDA-N
protocolDescription: NCI tumour cell line growth inhibition, 48 h

>  <compound>
Cc1ncc(CN=Cc2ccc(Cl)cc2)c(N)n1

>  <TGI>
> 100 µM

$$$$

State the recorded TGI for this entry: CN(C)c1ccc(N2C(=S)SC(=Nc3ccccc3)C2=Nc2ccccc2)cc1
> 100 µM

Look up TGI for this compound: Cc1ccc2c(=O)cc(-c3csc4ccccc34)[nH]c2n1
< 0.01 µM

Which TGI is reported for this compound? COc1ccc(N[C@H](CS(=O)c2ccc(C)cc2)c2ccc(F)cc2)cc1 (some centres undefined)
> 100 µM

* * *

Test system: KM12 colon
protocolDescription: NCI tumour cell line growth inhibition, 48 h
propertyLabel: TGI

>  <compound>
O=C(c1ccccc1)C(C(=O)c1ccccc1)C1(O)C(=O)c2ccccc2C1=O

>  <valueReported>
> 100 µM

$$$$
>  <compound>
O=c1c2ccccc2[nH]c(=S)n1-c1ccc(Br)cc1

>  <valueReported>
> 100 µM

$$$$

Shifting focus to the compound that follows.
For the record CCOC(=O)c1ccc(NC(=O)N2CC(C)OC(C)C2)cc1 (stereo not drawn) , what value of TGI is listed for KM12 colon?
> 100 µM

* * *

Test system: UACC-62 melanoma
protocolDescription: NCI tumour cell line growth inhibition, 48 h
Entries annotated with measured TGI
Please give a number only; it is taken to be in µM.

Record excerpt, results attached:
>  <compoundStructureString>
CCOC(=O)C(=O)Nc1nc2c(s1)C(=O)c1ccccc1C2=O

>  <unitOfMeasure>
µM

>  <TGI>
34.4

$$$$
>  <compoundStructureString>
Cc1nc2c(nc1C)C(=O)c1cc(O)ccc1C2=O

>  <unitOfMeasure>
µM

>  <TGI>
53.5

$$$$
>  <compoundStructureString>
CC1=C(C(=O)Nc2c(C)cccc2C)C(c2ccc3c(c2)OCO3)C(C(=O)Nc2c(C)cccc2C)=C(C)N1

>  <unitOfMeasure>
µM

>  <TGI>
10.9

$$$$
>  <compoundStructureString>
COc1ccc(N=C2CSc3nnc(-c4cc(F)c(Cl)cc4Cl)n3N2)cc1

>  <unitOfMeasure>
µM

>  <TGI>
23.2

$$$$

Then this molecule:
Endpoint output: TGI of Cc1ccc(F)cc1NC(=O)O/N=C(\Cl)C(C)C . Value?
39.7

* * *

TGI values by entry
Test system: CAKI-1 renal
protocolDescription: NCI tumour cell line growth inhibition, 48 h
Non-standard residues stand in square brackets, D forms with d. Residues, ends and D or L forms follow the SMILES beside them. *: point of attachment. ONb = O=[N+]([O-])c1ccc(CO*)cc1; AllylGly = C=CC[CH](N)C(=O)O; Boc = CC(C)(C)OC(=O)*

>  <molecule>
N/N=C(\C(=O)Nc1c(Cl)cc([N+](=O)[O-])cc1Cl)C(c1cnc2ccc([N+](=O)[O-])cc2n1)[N+](=O)[O-] (stereo not given)

>  <testedTarget>
CAKI-1 renal

>  <TGI>
> 100 µM

$$$$
>  <molecule>
COc1cc(OC)c([C@@H]2OC(=O)C3C2C(=O)O[C@H]3c2cc(OC)c(OC)cc2OC)cc1OC (stereo not given in full)

>  <testedTarget>
CAKI-1 renal

>  <TGI>
> 100 µM

$$$$
>  <molecule>
COc1ccc2nc3cc(Cl)ccc3c(NCCCCCC(=O)NC(COc3cnc4c(ccc5cccnc54)c3)COc3cnc4c(ccc5cccnc54)c3)c2c1

>  <testedTarget>
CAKI-1 renal

>  <TGI>
> 100 µM

$$$$
>  <molecule>
S=C1c2ccccc2NC(=NC2CCCC2)C2CSCN12 (stereo not given)

>  <testedTarget>
CAKI-1 renal

>  <TGI>
> 100 µM

$$$$
>  <molecule>
O=C1CC(O)C=C1Nc1ccc(Cl)cc1 (stereo not given)

>  <testedTarget>
CAKI-1 renal

>  <TGI>
> 100 µM

$$$$

Any idea what TGI was measured for COc1cccc(N2C(=O)C3c4[nH]c5ccccc5c4C4c5ccccc5CCC4C3C2=O)c1 (stereo not given) ?
> 10 µM

# query: TGI of entry O=C1NCc2ccc3c(-c4cccc(Cl)c4)c[nH]c3c21
> 50 µM

# input molecule: CCOC(=O)/C(O)=C1\C(=O)N(C)C(=O)C1c1ccc(OC)c(OC)c1 (stereo not given) ; wanted: its TGI
> 100 µM

Record request: TGI value, item C=CCC(NC(=O)OC(C)(C)C)C(=O)NC(CCC(=O)OCc1ccc([N+](=O)[O-])cc1)C(N)=O (stereo not given) (Boc-[AllylGly]-Glu(ONb)-NH2; configuration not given here)
54.5 µg/mL

Need TGI of CNC(P(=O)([O-])[O-])P(=O)([O-])[O-].N.N.[Pt+2] , thanks.
> 100 µM

* * *

Measured TGI accompanies every entry in the list below.
System: UACC-257 melanoma
protocolDescription: NCI tumour cell line growth inhibition, 48 h

Solved cases below.
>  <compound>
O=C(NCCN(CCNC(=O)c1cccc(=O)n1O)CCN(CCNC(=O)c1cccc(=O)n1O)CCNC(=O)c1cccc(=O)n1O)c1cccc(=O)n1O

>  <TGI>
> 100 µM

$$$$
>  <compound>
COc1cc(-c2nn(-c3ccc(NC(=O)c4ccc(Cl)c(Cl)c4)cc3)cc2-c2ccncc2)ccc1Cl

>  <TGI>
> 100 µM

$$$$

Turning now to a further compound:
Item: CC1(C)OC2OC(COC(=O)C=[N+]=[N-])C3OC(C)(C)OC3C2O1 (stereo not drawn) Test system: UACC-257 melanoma Read-out: TGI Value: ?
> 100 µM

* * *

Tested on: MOLT-4 leukemia
protocolDescription: NCI tumour cell line growth inhibition, 48 h
TGI: recorded values

>  <compoundStructureString>
COc1ccc(C2=C(OC(=O)N(C)C)c3cccn3-c3cc(C(F)(F)F)ccc3S2)cc1

>  <testedTarget>
MOLT-4 leukemia

>  <propertyLabel>
TGI

>  <valueReported>
> 10 µM

$$$$
>  <compoundStructureString>
CC(=O)c1ccc(N=Nc2ccc3nonc3c2N)cc1

>  <testedTarget>
MOLT-4 leukemia

>  <propertyLabel>
TGI

>  <valueReported>
> 100 µM

$$$$

Data request, read-out TGI, for COc1ccc2nc(N/N=C(\C)c3ccccn3)cc(C)c2c1
0.488 µM

* * *

Test system: CAKI-1 renal
protocolDescription: NCI tumour cell line growth inhibition, 48 h; in the data active = GI50 below about 0.43 µM; inactive = the rest
Answer with one of the outcomes active, inactive

>  <compoundStructureString>
CC(=O)O[C@H]1CC[C@@]2(C)C(=CC[C@@H]3[C@@H]2CC[C@]2(C)C(c4cccnc4)=CC[C@@H]32)C1

>  <className>
inactive

$$$$
>  <compoundStructureString>
C[C@@H]1C[C@@H](O)[C@]2(O)O[C@@H]3C[C@@]4(C=O)[C@@H](CC[C@@H]5[C@@H]4CC[C@]4(C)[C@@H](C6=CC(=O)OC6)CC[C@]54O)C[C@H]3O[C@@H]2O1

>  <className>
active

$$$$
>  <compoundStructureString>
N#Cc1c(Sc2ccccc2N)cccc1Sc1ccccc1N

>  <className>
inactive

$$$$
>  <compoundStructureString>
O=C(CCCCCCSc1nc(-c2ccccc2)cc(-c2ccc(Cl)cc2)n1)NO

>  <className>
inactive

$$$$

Record lookup: outcome of this test for CNC(P(=O)([O-])[O-])P(=O)([O-])[O-].N.N.[Pt+2] ?
inactive

Any idea what this test logged for CC(C)C[C@H](NC(=O)[C@H](Cc1cccc2ccccc12)NC(=O)N1CCOCC1)B(O)O ?
active

Test call, this compound: COc1cc2c(cc1OC)C(=O)/C(=C/c1cccc(OCC(=O)c3ccccc3)c1)C2
inactive

For this compound, state the assay outcome: Cc1ccc(-[n+]2c3cc(N)c(C)cc3nc3cc(C)c(Nc4ccccc4)cc32)cc1
active

Hey, what did the test say about Cc1c2c(nn1-c1ccc(S(=O)(=O)NC(=S)Nc3ccccc3)cc1)-c1ccccc1CC2 ?
inactive

How did this test come out for O=C(CN1CCN(c2ncccn2)CC1)Nc1ccc(Cl)cc1C(=O)c1ccccc1Cl ?
inactive

Called result for COc1ccc(N=C2CSc3nnc(-c4cc(F)c(Cl)cc4Cl)n3N2)cc1
inactive

Assay outcome for COc1nc(N(C)O)nc(N(C)O)n1 : what was it?
inactive
